Below, each of the compounds is paired with its reported LD50 value.
assay: Acute toxicity for oral administration in mice; type: in vivo; conditions: mouse, in vivo, po, suspension in 10% gum arabic
Use mg/kg as the unit, but write only the number.

Kindly note the recorded LD50 for C=C(C)CNC(=O)Nc1cc(OC)c(OC)c(OC)c1 [compound 812] , which is 2000

Kindly note the recorded LD50 for COc1cc(NC(=O)NCC2CCCO2)cc(OC)c1OC (centres unmarked) [compound 797] , which is 4400

Kindly note the recorded LD50 for COc1cc(NC(=O)N2CCCCC2)cc(OC)c1OC [compound 776] , which is 3750

Kindly note the recorded LD50 for COc1cc(NC(=O)N2CC=CCC2)cc(OC)c1OC [compound 819] , which is 5000

Kindly note the recorded LD50 for COc1cc(NC(=O)NC(C)CN(C)C)cc(OC)c1OC (centres unmarked) [compound 784] , which is 3380
